List of IC50 values.
System: DU145 (human prostate cancer cell line)
Assay comment: MTS cytotoxicity assay, DU145
Assay type: cell-based
Conditions used: 72 h, mean ± SD
Answer format: numeric, µM implied, no suffix.

Reference set (2 entries):
O=C1[O][Pt]2([NH][C@@H]3CCCC[C@H]3[NH]2)[O]C1=O [Oxaliplatin, reference compound]: 2.05
O=C1[O][Pt]2([NH][C@@H]3CCCC[C@H]3[NH]2)[O]C(=O)C1(F)CCO[C@H]1O[C@H](CO)[C@@H](O)[C@H](O)[C@@H]1O (stereo partly shown): 2.6

For O=C1[O][Pt]2([NH][C@@H]3CCCC[C@H]3[NH]2)[O]C(=O)C1(F)CCO[C@@H]1O[C@H](CO)[C@H](O)[C@H](O)[C@H]1O (stereo partly shown) the compound record lists IC50 as 5.11

The compound listed as O=C1[O][Pt]2([NH][C@@H]3CCCC[C@H]3[NH]2)[O]C(=O)C1(F)CCO[C@H]1O[C@H](CO)[C@@H](O)[C@H](O)[C@H]1O (stereo partly shown) has a reported IC50 of 5.98
